# Test system: deadnettle (henbit deadnettle, Lamium amplexicaule)
# ASSAY_EXPLANATION: Test D controlled growth environment herbicide test, pre- and postemergence
# Format: in vivo
# MEASUREMENT_PARAMETERS: Postemergence, 31 g ai/ha; scale 0 to 100 (0 no effect, 100 complete control)
VALUE_KIND: Deadnettle plant response rating

## Task Which Deadnettle plant response rating value is on record for COc1nn(C)c(=O)c(-c2c(C)ccc3ccccc23)c1O ?
## Result 100

## Task Which Deadnettle plant response rating value is on record for CC(=O)Oc1c(C)nn(C)c(=O)c1-c1c(C)cc(C)c2ccccc12 ?
## Result 70

## Task Which Deadnettle plant response rating value is on record for COc1nn(C)c(=O)c(-c2c(C)ccc3ccccc23)c1OC(=O)OC(C)C ?
## Result 80

## Task Which Deadnettle plant response rating value is on record for CC(=O)Oc1c(C)nn(C)c(=O)c1-c1ccc(F)c2ccccc12 ?
## Result 70

---

Could you please report measured Plant response rating, Corn for the items listed next?
# Tested on: corn (Zea mays)
# ASSAY_EXPLANATION: Test A greenhouse herbicide test, pre- and postemergence
# Format: in vivo
# MEASUREMENT_PARAMETERS: Postemergence, 125 g ai/ha; 0 to 100 scale where 0 is no effect and 100 is complete control

## Task For the record CCOC(=O)Oc1c(C)nn(C)c(=O)c1-c1c(C)sc2ccc(C)cc12 , what value of Plant response rating, Corn is listed for corn (Zea mays)?
## Result 0

## Task For the record Cc1sc2ccc(Cl)cc2c1-c1c(OS(C)(=O)=O)c(Cl)nn(C)c1=O , what value of Plant response rating, Corn is listed for corn (Zea mays)?
## Result 0

## Task For the record Cc1cc(C)c2ccccc2c1-c1c(O)cnn(C)c1=O , what value of Plant response rating, Corn is listed for corn (Zea mays)?
## Result 0

## Task For the record CC(=O)Oc1c(C#N)nn(C)c(=O)c1-c1c(C)ccc2ccccc12 , what value of Plant response rating, Corn is listed for corn (Zea mays)?
## Result 20

## Task For the record CC(=O)Oc1ccc2cccc(-c3c(OC(C)=O)c(C)nn(C)c3=O)c2c1 , what value of Plant response rating, Corn is listed for corn (Zea mays)?
## Result 0

---

# Tested on: ragweed (common ragweed, Ambrosia elatior)
# ASSAY_EXPLANATION: Test E greenhouse herbicide test, pre- and postemergence
# Assay type: in vivo
# MEASUREMENT_PARAMETERS: 62 g ai/ha, Preemergence; scale 0 to 100 (0 no effect, 100 complete control)
VALUE_KIND: Plant response rating, Ragweed
Answer with a bare number; do not write a unit.

## Task For the record Cc1ccc2ccccc2c1-c1c(O)c(C)nn(C)c1=O , what value of Plant response rating, Ragweed is listed for ragweed (common ragweed, Ambrosia elatior)?
## Result 95

## Task For the record CC(=O)Oc1c(C)nn(C)c(=O)c1-c1c(C)sc2ccc(C)cc12 , what value of Plant response rating, Ragweed is listed for ragweed (common ragweed, Ambrosia elatior)?
## Result 95

## Task For the record CC(=O)Oc1c(C)nn(C)c(=O)c1-c1c(C)sc2c(C)cc(C)cc12 , what value of Plant response rating, Ragweed is listed for ragweed (common ragweed, Ambrosia elatior)?
## Result 95

## Task For the record Cc1cc(C)c2sc(C)c(-c3c(OC(=O)OCCCl)c(C)nn(C)c3=O)c2c1 , what value of Plant response rating, Ragweed is listed for ragweed (common ragweed, Ambrosia elatior)?
## Result 80

## Task For the record C#CCOC(=O)Oc1c(C)nn(C)c(=O)c1-c1c(C)sc2ccc(C)cc12 , what value of Plant response rating, Ragweed is listed for ragweed (common ragweed, Ambrosia elatior)?
## Result 95
